System: PC-3
Assay protocol: NCI tumour cell line growth inhibition, 48 h
Active and inactive are the calls of the source. Rule as the data show it: active = GI50 up to about 1.1 µM and inactive = higher.
Endpoint label: GI50

>  <Compound>
CCOC(=O)c1csc(NC(=O)CCN2CCN(C)CC2)n1

>  <Result>
> 100 µM (inactive)

$$$$
>  <Compound>
CC1=NN(c2cccc(Cl)c2)C2(SCC(=O)N2c2nc3ccccc3s2)/C1=C\c1ccc(N(C)C)cc1 (centres undefined)

>  <Result>
> 100 µM (inactive)

$$$$
>  <Compound>
O=C1C(NCCc2cc(Br)c(O)c(Br)c2)=CC(=O)c2ncccc21

>  <Result>
20.9 µM (inactive)

$$$$
>  <Compound>
Clc1cc(Cl)cc(/C=N/C23CC4CC(CC(C4)C2)C3)c1

>  <Result>
> 10 µM (inactive)

$$$$
